test system: MDA-MB-468 multi-cell spheroids, viability; assay: Anticancer human tumor MDA-MB-468 cell line growth inhibition [IpAb]; conditions: second compound 0.0316 µM; first compound 1 µM; stronger effect = lower value;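 also: spheroids exposed to agents for seven days; 100% = DMSO vehicle control viability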
Please respond with reported viability, T/C for every item in the list.
Numbers only; they are read as %.

Please state recorded viability, T/C (tested on MDA-MB-468 multi-cell spheroids, viability) of C=CC(=O)N1CCN(c2nc(=O)n(-c3c(C)ccnc3C(C)C)c3nc(-c4c(O)cccc4F)c(F)cc23)C(C)C1 (stereo not drawn) + CCN1CCN(Cc2ccc(Nc3ncc(F)c(-c4cc(F)c5nc(C)n(C(C)C)c5c4)n3)nc2)CC1
91.7

Please state recorded viability, T/C (tested on MDA-MB-468 multi-cell spheroids, viability) of COc1c(OCCCN2CCOCC2)ccc2c3n(c(=NC(=O)c4cnc(N)nc4)nc12)CCN3 + CCN1CCN(Cc2ccc(Nc3ncc(F)c(-c4cc(F)c5nc(C)n(C(C)C)c5c4)n3)nc2)CC1
3.58

Please state recorded viability, T/C (tested on MDA-MB-468 multi-cell spheroids, viability) of Cn1ncc(Cl)c1-c1cc(C(=O)NC(CN)Cc2cccc(F)c2)sc1Cl (stereo not drawn) + CCN1CCN(Cc2ccc(Nc3ncc(F)c(-c4cc(F)c5nc(C)n(C(C)C)c5c4)n3)nc2)CC1
34.1

----------
Please respond with reported viability, T/C for every item in the list.
Test system: MDA-MB-468 multi-cell spheroids, viability
Assay: Anticancer human tumor MDA-MB-468 cell line growth inhibition [IpAb];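 also: spheroids exposed to agents for seven days; 100% = DMSO vehicle control viability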
Conditions: second compound 0.1 µM; first compound 0.3 µM; stronger effect = lower value
Experimental: Combinatorial screen of targeted agents with ipatasertib and abemaciclib in multi-cell type tumor spheroids […] Compounds. […] If the clinical Cmax for an agent had not been determined, the highest concentration tested was 10 microM. NCI60 Cell Culture. […] The optimal seeding densities for each of the cell lines at each time point assessed were determined prior to performing the concentration response studies. […]

I have this molecule here, Cn1cnc2c(F)c(Nc3ccc(Br)cc3Cl)c(C(=O)NOCCO)cc21 + CC(C)NCC(C(=O)N1CCN(c2ncnc3c2C(C)CC3O)CC1)c1ccc(Cl)cc1 , and I need its recorded viability, T/C.
53.6%

I have this molecule here, CC(=O)c1c(C)c2cnc(Nc3ccc(N4CCNCC4)cn3)nc2n(C2CCCC2)c1=O + CCN1CCN(Cc2ccc(Nc3ncc(F)c(-c4cc(F)c5nc(C)n(C(C)C)c5c4)n3)nc2)CC1 , and I need its recorded viability, T/C.
95.7%

I have this molecule here, CC(=O)c1c(C)c2cnc(Nc3ccc(N4CCNCC4)cn3)nc2n(C2CCCC2)c1=O + CC(C)NCC(C(=O)N1CCN(c2ncnc3c2C(C)CC3O)CC1)c1ccc(Cl)cc1 , and I need its recorded viability, T/C.
77.8%

I have this molecule here, Cn1cnc2c(F)c(Nc3ccc(Br)cc3Cl)c(C(=O)NOCCO)cc21 + CCN1CCN(Cc2ccc(Nc3ncc(F)c(-c4cc(F)c5nc(C)n(C(C)C)c5c4)n3)nc2)CC1 , and I need its recorded viability, T/C.
58.8%

I have this molecule here, CC(C)(C)c1cnc(CSc2cnc(NC(=O)C3CCNCC3)s2)o1 + CCN1CCN(Cc2ccc(Nc3ncc(F)c(-c4cc(F)c5nc(C)n(C(C)C)c5c4)n3)nc2)CC1 , and I need its recorded viability, T/C.
0.22%

I have this molecule here, CC(C)(C)c1cnc(CSc2cnc(NC(=O)C3CCNCC3)s2)o1 + CC(C)NCC(C(=O)N1CCN(c2ncnc3c2C(C)CC3O)CC1)c1ccc(Cl)cc1 , and I need its recorded viability, T/C.
0.3%
